These measurements were taken from a collection of fitness landscapes (doi:10.1016/j.celrep.2020.107928).

B1: Caulobacter ParB omega fusion; a variant is named by its letters at X, in order, B8GW30 (parent)
chain: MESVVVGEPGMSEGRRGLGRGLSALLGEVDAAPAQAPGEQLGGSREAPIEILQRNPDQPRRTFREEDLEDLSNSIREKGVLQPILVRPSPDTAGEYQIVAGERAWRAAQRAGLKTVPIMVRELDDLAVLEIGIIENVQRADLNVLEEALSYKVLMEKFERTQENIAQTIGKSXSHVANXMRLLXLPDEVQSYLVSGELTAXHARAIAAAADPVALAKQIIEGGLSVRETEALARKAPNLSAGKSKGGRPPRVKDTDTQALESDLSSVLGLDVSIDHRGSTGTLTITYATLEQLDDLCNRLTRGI

Variants of: B1
Experiment: one-hybrid fitness for binding parS DNA (scaled: cognate 1, non-cognate 0); higher = stronger binding
Conditions: with parS DNA site
Whole data set: some 81,000 sequences, median “one-hybrid fitness for binding parS DNA” near -0.17, cut for the highest 2% near 0.51. This excerpt belongs to a sample that is enriched for the highest values.
Each item that follows carries a reported one-hybrid fitness for binding parS DNA.
Just the number, please, no unit attached.

RRFN ... 0.314

Record `RAIG` , field one-hybrid fitness for binding parS DNA: 0.871
